Experiment: Half life in PBS at pH 7.4 at 100 uM incubated at 37 degreeC up to 24 hrs by UPHLC analysis
Type: ADME

{"molecule": "CCCC1O[C@@H]2C[C@H]3[C@@H]4CCC5=CC(=O)C=C[C@]5(C)[C@H]4[C@@H](O)C[C@]3(C)[C@]2(C(=O)COC(=O)CN=C=S)O1 (stereo partly drawn)", "half-life at 100 µM": "> 24 h"}
{"molecule": "CCCCC(=O)O[C@]1(C(=O)COC(=O)CN=C=S)[C@@H](C)C[C@H]2[C@@H]3CCC4=CC(=O)C=C[C@]4(C)[C@@]3(F)[C@@H](O)C[C@@]21C", "half-life at 100 µM": "> 24 h"}
{"molecule": "C[C@]12C=CC(=O)C=C1CC[C@@H]1[C@@H]2[C@@H](O)C[C@@]2(C)[C@H]1C[C@H]1O[C@@H](C3CCCCC3)O[C@]12C(=O)COC(=O)CN=C=S", "half-life at 100 µM": "> 24 h"}

----------
Experiment: Half life in simulated gastric fluid at pH 1.2 in absence of pepsin at 100 uM incubated at 37 degreeC up to 24 hrs by UPHLC analysis
Assay type: ADME
Details: simulated gastric fluid without pepsin
measured quantity: half-life at 100 µM

{"compound": "CCCC1O[C@@H]2C[C@H]3[C@@H]4CCC5=CC(=O)C=C[C@]5(C)[C@H]4[C@@H](O)C[C@]3(C)[C@]2(C(=O)COC(=O)CN=C=S)O1 (stereo partly drawn)", "result value": "> 24 h"}
{"compound": "CCCCC(=O)O[C@]1(C(=O)COC(=O)CN=C=S)[C@@H](C)C[C@H]2[C@@H]3CCC4=CC(=O)C=C[C@]4(C)[C@@]3(F)[C@@H](O)C[C@@]21C", "result value": "> 24 h"}
{"compound": "C[C@]12C=CC(=O)C=C1CC[C@@H]1[C@@H]2[C@@H](O)C[C@@]2(C)[C@H]1C[C@H]1O[C@@H](C3CCCCC3)O[C@]12C(=O)COC(=O)CN=C=S", "result value": "> 24 h"}
